- system: Kinesin-like protein KIFC1 (Homo sapiens, UniProt Q9BW19)
- Sequence (Q9BW19 whole entry): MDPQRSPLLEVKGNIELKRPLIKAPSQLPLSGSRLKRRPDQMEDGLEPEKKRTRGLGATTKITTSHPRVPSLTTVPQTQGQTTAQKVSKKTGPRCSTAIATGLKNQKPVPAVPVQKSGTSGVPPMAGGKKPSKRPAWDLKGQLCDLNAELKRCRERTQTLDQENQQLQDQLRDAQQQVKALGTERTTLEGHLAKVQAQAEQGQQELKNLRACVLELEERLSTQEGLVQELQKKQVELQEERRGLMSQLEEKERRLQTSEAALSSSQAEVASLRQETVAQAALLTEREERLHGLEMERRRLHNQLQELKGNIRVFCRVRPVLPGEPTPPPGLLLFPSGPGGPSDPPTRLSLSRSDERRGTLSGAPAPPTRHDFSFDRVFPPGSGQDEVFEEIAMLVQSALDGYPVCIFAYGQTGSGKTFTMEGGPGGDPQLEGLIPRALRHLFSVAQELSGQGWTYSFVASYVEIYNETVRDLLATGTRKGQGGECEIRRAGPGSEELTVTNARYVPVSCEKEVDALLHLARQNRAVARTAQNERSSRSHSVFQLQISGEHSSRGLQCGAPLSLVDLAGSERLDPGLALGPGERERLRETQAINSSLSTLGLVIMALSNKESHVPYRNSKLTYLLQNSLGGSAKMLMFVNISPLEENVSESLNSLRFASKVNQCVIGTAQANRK
- experiment_summary: Displacement of FP-Probe from N-terminal His-tagged full length recombinant human HSET incubated for 2 hrs by fluorescence polarization based competitive binding assay
reported_property: IC50 (nM)
// units = nM; emit number, no label

Tell me the measured IC50 of CCOC(=O)c1sc(NC(=O)CCNC(=O)c2cccc(-c3noc(C)n3)c2)nc1C , please.
109
